system: human APOE RNA; experiment: Dose-dependent inhibition of human APOE RNA in differentiated SH-SY5Y cells, free uptake, 5 days (Example 5); format: cell-based; conditions: 33 nM, 5 days (Table 14)
Strand notation (5' to 3'): a small letter for the sugar, then the base; units joined by * are phosphorothioate-linked, units joined directly phosphodiester-linked; [ ] holds rarer units or linkages, { } end groups; capitals alone tell only the bases. [ms] = mesyl phosphoramidate linkage; e = 2'-O-(2-methoxyethyl) (MOE); k = constrained ethyl (cEt); [5mC] = 5-methylcytosine; d = 2'-deoxy (DNA)
Reported APOE RNA (% UTC) values for the following substances.
# number only, unit % UTC dropped from output

Some entries whose results are on file:
1778131: modified oligonucleotide complementary to human APOE RNA (eA*e[5mC]eTeTeGkG*dT*dG[ms]dA[ms]dA*dT*d[5mC]*dT*dT*dT*dA[ms]kTkT*eA*eA; antisense) [compound 1778131]
89
1785599: modified oligonucleotide complementary to human APOE RNA (k[5mC]*kT*kT*dG[ms]dG[ms]dT[ms]dG[ms]dA[ms]dA[ms]dT[ms]d[5mC]*dT*dT*dT*dA*dT*kT*kA*dA[ms]kA; antisense) [compound 1785599]
72
1746804 (k[5mC]*kT*kT*dG[ms]dG[ms]dT[ms]dG[ms]dA[ms]dA[ms]dT*d[5mC]*dT*dT*dT*dA[ms]dT*dT[ms]kA*kA*kA; antisense) [Compound 1746804]
120

We next turn to a different substance, shown below.
Give APOE RNA (% UTC) only, for 1778130: modified oligonucleotide complementary to human APOE RNA (eA*e[5mC]eTeTeG*kG*dT*dG[ms]dA[ms]dA*dT*d[5mC]*dT*dT*dT*dA[ms]kTkT*eA*eA; antisense) [compound 1778130] , using human APOE RNA data.
75

---

test system: human APOE RNA; test: Dose-dependent inhibition of human APOE RNA in HepG2 cells, electroporation, 24 hours (Example 6); type: cell-based; details: 3,200 nM
Strand notation (5' to 3'): a small letter for the sugar, then the base; units joined by * are phosphorothioate-linked, units joined directly phosphodiester-linked; [ ] holds rarer units or linkages, { } end groups; capitals alone tell only the bases. [ms] = mesyl phosphoramidate linkage; e = 2'-O-(2-methoxyethyl) (MOE); k = constrained ethyl (cEt); [5mC] = 5-methylcytosine; d = 2'-deoxy (DNA)
readout type: APOE RNA (% UTC)
# number only, unit % UTC dropped from output

Some entries whose results are on file:
1736524: 6-10-4 MOE gapmer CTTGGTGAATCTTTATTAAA, linkages sssooozzssssssssoss (e[5mC]*eT*eT*eGeGeTdG[ms]dA[ms]dA*dT*d[5mC]*dT*dT*dT*dA*dT*eTeA*eA*eA) [compound 1736524]
34
1736519: 6-10-4 MOE gapmer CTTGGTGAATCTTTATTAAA, linkages sososszzzssssssssss (e[5mC]*eTeT*eGeG*eT*dG[ms]dA[ms]dA[ms]dT*d[5mC]*dT*dT*dT*dA*dT*eT*eA*eA*eA) [compound 1736519]
15
1736517 (e[5mC]*eTeTeG*kG*kT*dG[ms]dA[ms]dA[ms]dT*d[5mC]*dT*dT*dT*dA[ms]dT*eT*eA*eA*eA; antisense) [Compound 1736517]
22

We next turn to a different substance, shown below.
For 1736527: 6-10-4 MOE gapmer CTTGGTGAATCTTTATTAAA, linkages sssooozzsssssssssss (e[5mC]*eT*eT*eGeGeTdG[ms]dA[ms]dA*dT*d[5mC]*dT*dT*dT*dA*dT*eT*eA*eA*eA) [compound 1736527] , write its APOE RNA (% UTC).
37
